# target_or_test_system: Alpha-2C adrenergic receptor (Homo sapiens) (UniProt P18825)
# Sequence (P18825 whole entry, looked up): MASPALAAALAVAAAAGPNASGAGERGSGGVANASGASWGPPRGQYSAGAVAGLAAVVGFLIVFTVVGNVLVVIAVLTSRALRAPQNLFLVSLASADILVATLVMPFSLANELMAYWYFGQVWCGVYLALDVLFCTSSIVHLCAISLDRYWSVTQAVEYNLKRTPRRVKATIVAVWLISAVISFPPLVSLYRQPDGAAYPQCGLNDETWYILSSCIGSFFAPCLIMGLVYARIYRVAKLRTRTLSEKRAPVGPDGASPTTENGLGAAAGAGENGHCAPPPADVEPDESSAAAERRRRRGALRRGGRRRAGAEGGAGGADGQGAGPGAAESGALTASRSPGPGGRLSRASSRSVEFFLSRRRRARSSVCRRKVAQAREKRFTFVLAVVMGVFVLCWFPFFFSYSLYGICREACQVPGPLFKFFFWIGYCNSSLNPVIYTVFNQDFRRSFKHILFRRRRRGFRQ
# experimental_details: compounds altering alpha2C-coupled GIRK flux – cell-based, HEK293 alpha2C/GIRK1/2, thallium flux, primary screen (AID 624);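 also: slope of fluorescence ratio to pre-addition baseline per second over 15 to 24 s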
# run_conditions: thallium flux BTC fluorescence, at 10 µM, actives lie on both sides
Respond with t for slope values of 0.006 and above, f for values below.

| compound | qualitative_label |
| --- | --- |
| Cc1c(C(=O)OC2CCC(C)CC2)[nH]c2c1C(=O)CCC2 (stereo unspecified) | t |

Task: Identify whether the reported slope of the following compound is 0.006 or greater: `COC(=O)c1cc2oc(C)cc2n1CC(=O)N(C)c1ccccc1`
Output: t

Task: Identify whether the reported slope of the following compound is 0.006 or greater: `O=c1c2cc(Cl)ccc2[nH]c(=S)n1Cc1ccco1`
Output: f

Task: Identify whether the reported slope of the following compound is 0.006 or greater: `Brc1ccccc1-c1nc(-c2ccccc2)no1`
Output: f
